- testSystem: T1, VISTA (NCBI Reference Sequence: NP_071436.1) on VISTA-CHO cells (UniProt Q9H7M9 33-311, limits assumed)
- T1 construct: whole, on cells
- methodSummary: flow cytometry on VISTA-CHO cells; blank P3 0.1%; the filing says V1-V5 did not bind
quantityName: % of cells in gate P3 at 100 nM (%)
Give a bare numeral; the unit % is implied.

So what does the record say about % of cells in gate P3 at 100 nM for Antibody V1 (antibody, human IgG1, kappa, V domains shown, Humanized from chimeric antibody M1; also called humanized antibody V1) VH: EVQLVQSGAEVKKSGESLKISCKASGYTFTDYDINWVRQMPGKGLEWMGWIFPGDDTTKYNEKFKGQVTISADKSTNTAYLQWSSLKASDTAMYYCARSPSFDYWGQGTLVTVSS VL: QIVLTQSPGTLSLSPGERATLSCSASSTIGFMYWYQQKPGQAPRRWIYDTSKLASGVPDRFSVSGSGTDYTLTISRLEPEDFAVYYCHQRSSYPTFGQGTKVEIKR ?
0.9

How about Antibody V5 (antibody, human IgG1, kappa, V domains shown, Humanized from chimeric antibody M1; also called humanized antibody V5) VH: QVQLVQSGAEVKKPGASVKVSCKASGYTFTDYDINWVRQAPGQRLEWIGWIFPGDDTTKYNEKFKGRATLTADKSASTAYMELSSLRSEDTAVYYCARSPSFDYWGQGTLVTVSS VL: QIVLTQSPSSLSASVGDRVTITCSASSTIGFMYWYQQKPGKAPKRWIYDTSKLASGVPSRFSVSGSGTDYTLTISSLQPEDFATYYCHQRSSYPTFGQGTKVEIKR ?
0.2

How about Antibody V3 (antibody, human IgG1, kappa, V domains shown, Humanized from chimeric antibody M1; also called humanized antibody V3) VH: EVQLVQSGAEVKKSGESLKISCKASGYTFTDYDINWVRQMPGKGLEWIGWIFPGDDTTKYNEKFKGQVTLSADKSTNTAYMQWSSLKASDTAMYYCARSPSFDYWGQGTLVTVSS VL: QIVLTQSPGTLSLSPGERATLSCSASSTIGFMYWYQQKPGQAPRRWIYDTSKLASGVPDRFSGSGSGTDYTLTISRLEPEDFAVYYCHQRSSYPTFGQGTKVEIKR ?
0.7

How about Antibody V2 (antibody, human IgG1, kappa, V domains shown, Humanized from chimeric antibody M1; also called humanized antibody V2) VH: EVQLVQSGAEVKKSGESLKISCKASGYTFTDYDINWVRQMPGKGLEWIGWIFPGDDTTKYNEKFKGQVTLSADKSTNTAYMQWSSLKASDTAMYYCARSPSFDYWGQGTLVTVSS VL: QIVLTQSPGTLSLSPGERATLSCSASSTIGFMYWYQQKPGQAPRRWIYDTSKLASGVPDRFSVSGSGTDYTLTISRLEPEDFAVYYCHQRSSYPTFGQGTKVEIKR ?
1.8
